# Tested on: OVCAR-8 ovarian
# test_summary: NCI tumour cell line growth inhibition, 48 h
readout_name: TGI

TGI measured on Cc1c2cc[nH]c(C(F)(F)F)c2cc2c1nc1ccccc12 = > 125 µM

TGI measured on O=c1[nH]c(=O)n(C2CC(O)C(CO)O2)cc1I (stereo not given) = > 100 µM

TGI measured on Cc1ccccc1NC(=S)Nc1ccccn1 = > 100 µM

TGI measured on NNC(=S)N/N=C(\CCCC(=O)NCCc1ccccc1)CC(=O)c1ccccc1 = > 100 µM

TGI measured on C(=Nc1ccccc1)C1CCCC[N-]1.C(=Nc1ccccc1)C1CCCC[N-]1.[Cu+2].[O-][Cl+3]([O-])([O-])O (stereo not given) = > 95.2 µM

TGI measured on CN(C)CCNc1ccc(C(=O)NCCCN(C)CCCNC(=O)c2ccc(NCCN(C)C)c3c(=O)c4ccccc4[nH]c23)c2[nH]c3ccccc3c(=O)c12 = 2.39 µM

TGI measured on c1csc(-c2ccc(-c3ccc(-c4ccc(-c5cccs5)s4)s3)s2)c1 = > 100 µM

TGI measured on O=C1CSC2(CC(/C=C/c3ccccc3)=NN2c2cccc(S(=O)(=O)O)c2)N1c1nc2ccccc2s1 (stereo not given) = 35.8 µM

TGI measured on CC(=O)N1CCN(C2=Nc3ccccc3CO2)C1=S = > 100 µM

TGI measured on COc1cc(CCc2cccnc2)cc(OC)c1OC = > 100 µM
